Test system: wheat germ agglutinin (Triticum aestivum), Alexa647-labelled
Test: wheat germ agglutinin binders on compound microarrays, profiling panel, artefact control for SMM control-protein annotation, biochemical, small-molecule microarray, 635/667 nm fluorescence (AID 1140);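 further: score merges 667 nm feature emission with signal to noise over triplicate slides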
Settings: WGA-A647 binding, 635 nm fluorescence, higher = more signal
Measured composite z-score, listed per entry for reference.
ATTRIBUTE MEASURED: composite z-score

COMPOUND	RECORDED RESULT
CCCCNC(=O)c1ccc(C#C[Si](C(C)C)(C(C)C)C(C)C)c(OC(C)=O)c1	1.08
O=C1C[C@@](C(=O)NCC(F)(F)F)(c2ccc([N+](=O)[O-])cc2)[C@@H](c2ccc(CO)cc2)N1CC12CC3CC(CC(C3)C1)C2	0.732
CCN(CC)c1ccc(N2CC=CC34O[C@@H]5/C=C\CCC(C)OC(=O)C5[C@H]3C(=O)N(C(C)CO)[C@@H]4C2=O)cc1 (some centres not stated)	-0.663
COC(=O)C1N=C(c2ccc(OCCCO)cc2)N(c2ccccc2)O1 (configuration not stated)	1.29
COc1ccc(C#Cc2ccc3c(c2)[C@]2(C(=O)N3)[C@H](c3ccc(OCCO)cc3)N3[C@H](c4ccccc4)[C@H](c4ccccc4)OC(=O)[C@H]3[C@@H]2C(=O)N2CCc3cc(OC)c(OC)cc3C2)cc1	0.863
CC(C)CCC[C@@H](C)[C@H]1CC[C@@]2(C)C3=C(CC[C@]12C)[C@@]1(C)CC[C@H](OC(=O)c2ccccc2)C(C)(C)C1CC3 (some centres not stated)	0.134
C=C(COC)/C(=C/C[C@@H](OC(=O)c1ccncc1)c1ccccc1OCCO)c1cc(C(=O)OC)ccc1OC	-1.12
